# target system: Calpain-1 catalytic subunit (Sus scrofa)
# Sequence (P35750 whole entry): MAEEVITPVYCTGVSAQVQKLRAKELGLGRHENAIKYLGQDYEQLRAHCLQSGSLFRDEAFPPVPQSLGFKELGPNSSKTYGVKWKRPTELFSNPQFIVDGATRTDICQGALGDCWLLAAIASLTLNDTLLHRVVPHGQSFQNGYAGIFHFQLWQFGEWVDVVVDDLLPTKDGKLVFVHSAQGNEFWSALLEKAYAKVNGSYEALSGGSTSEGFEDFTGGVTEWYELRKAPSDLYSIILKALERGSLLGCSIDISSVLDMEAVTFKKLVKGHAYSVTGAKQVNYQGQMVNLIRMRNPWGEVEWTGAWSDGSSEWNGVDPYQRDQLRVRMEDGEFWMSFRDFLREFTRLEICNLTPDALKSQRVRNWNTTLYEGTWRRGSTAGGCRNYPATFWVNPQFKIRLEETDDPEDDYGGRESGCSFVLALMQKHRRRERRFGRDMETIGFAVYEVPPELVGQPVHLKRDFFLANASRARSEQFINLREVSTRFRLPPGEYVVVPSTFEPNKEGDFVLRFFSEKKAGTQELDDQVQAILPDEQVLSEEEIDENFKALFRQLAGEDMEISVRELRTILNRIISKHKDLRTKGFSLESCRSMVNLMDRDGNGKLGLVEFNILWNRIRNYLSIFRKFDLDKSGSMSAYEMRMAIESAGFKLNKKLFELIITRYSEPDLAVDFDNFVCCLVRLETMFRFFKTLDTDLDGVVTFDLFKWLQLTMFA
# protocol notes: Inhibitory activity against porcine calpain I using Suc-Leu-Tyr-AMC fluorogenic substrate
measurement name: pIC50
Scale for pIC50: -log10 of concentration given in mol/L; no unit attached.

Worked cases, answers included:
compound | target system | pIC50
CCNC(=O)C(=O)[C@H](Cc1ccc(Cl)cc1)NC(=O)[C@@H](NC(=O)CCCC[C@@H]1SC[C@@H]2NC(=O)N[C@@H]21)C(C)C | Calpain-1 catalytic subunit (Sus scrofa) | 7.00
CCNC(=O)C(=O)[C@H](Cc1cccc(C(F)(F)F)c1)NC(=O)[C@@H](NC(=O)CCCCC1CCSS1)C(C)C (stereo partly specified) | Calpain-1 catalytic subunit (Sus scrofa) | 7.00
CCNC(=O)C(=O)[C@H](Cc1ccc(Cl)cc1)NC(=O)[C@@H](NC(=O)CCCCNC(=O)CCCCC1CCSS1)C(C)C (stereo partly specified) | Calpain-1 catalytic subunit (Sus scrofa) | 7.00

Ask: Return value of pIC50 for input CCNC(=O)C(=O)[C@H](Cc1cccs1)NC(=O)[C@@H](NC(=O)CCCCC1CCSS1)C(C)C (stereo partly specified) , no commentary.
Reply: 7.00

Ask: Tell me its pIC50 given CCNC(=O)C(=O)[C@H](Cc1ccc(Cl)cc1Cl)NC(=O)[C@@H](NC(=O)CCCCC1CCSS1)C(C)C (stereo partly specified) as the entry.
Reply: 7.00

Ask: Given the compound CCNC(=O)C(=O)[C@H](Cc1ccc(Cl)cc1)NC(=O)[C@@H](NC(=O)CCC1CCCS1)C(C)C (stereo partly specified) , write its reported pIC50.
Reply: 7.00

Ask: Recall and state the measured pIC50 for CCNC(=O)C(=O)[C@H](Cc1ccc(Cl)cc1)NC(=O)[C@H](CC(C)(C)C)NC(=O)CCCCC1CCSS1 (stereo partly specified) .
Reply: 7.00

Ask: Note pIC50 for the compound shown: CCNC(=O)C(=O)[C@H](Cc1ccc(C)cc1)NC(=O)[C@@H](NC(=O)CCCCC1CCSS1)C(C)C (stereo partly specified)
Reply: 7.15

Ask: Identify pIC50 associated with the compound CCNC(=O)C(=O)[C@H](Cc1ccc(F)c(F)c1)NC(=O)[C@@H](NC(=O)CCCCC1CCSS1)C(C)C (stereo partly specified)
Reply: 7.00

Ask: For the compound CCNC(=O)C(=O)C(Cc1ccc(Br)cc1)NC(=O)[C@H](CC(C)C)NC(=O)CCCCC1CCSS1 (stereo partly specified) , give its reported pIC50.
Reply: 7.70

Ask: Report measured pIC50; entry is CCNC(=O)C(=O)[C@H](Cc1ccc(O)cc1)NC(=O)[C@@H](NC(=O)CCCCC1CCSS1)C(C)C (stereo partly specified)
Reply: 6.82
